- system: DLL4 extracellular domain (R&D systems, catalog #1506-D4/CF) (UniProt Q9NR61 27-529, limits assumed)
- Sequence (Q9NR61 27-529 limits assumed): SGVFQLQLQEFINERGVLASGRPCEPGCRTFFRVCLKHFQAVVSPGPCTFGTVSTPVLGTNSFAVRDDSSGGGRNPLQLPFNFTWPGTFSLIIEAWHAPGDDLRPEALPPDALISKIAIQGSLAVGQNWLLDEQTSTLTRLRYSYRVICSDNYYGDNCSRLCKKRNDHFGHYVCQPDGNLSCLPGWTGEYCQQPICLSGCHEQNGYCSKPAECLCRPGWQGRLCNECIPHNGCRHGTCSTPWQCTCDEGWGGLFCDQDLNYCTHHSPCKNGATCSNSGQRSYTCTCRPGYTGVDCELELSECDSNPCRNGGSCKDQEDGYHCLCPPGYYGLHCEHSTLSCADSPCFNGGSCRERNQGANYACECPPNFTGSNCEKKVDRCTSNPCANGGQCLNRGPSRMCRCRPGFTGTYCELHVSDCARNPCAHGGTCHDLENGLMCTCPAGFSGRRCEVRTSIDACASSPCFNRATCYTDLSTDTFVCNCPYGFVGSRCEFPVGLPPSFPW
- assay-overview: cell-based or functional assay
endpoint: % inhibition 1 µg/ml, AVERAGE (HUVEC proliferation on coated DLL4) (%)

{"columns": ["binder", "units-label", "observed-result"],
 "data": [
  ["3A7 (antibody, IgG4, V domains shown, Fully human; also used where no isotype is printed) VH: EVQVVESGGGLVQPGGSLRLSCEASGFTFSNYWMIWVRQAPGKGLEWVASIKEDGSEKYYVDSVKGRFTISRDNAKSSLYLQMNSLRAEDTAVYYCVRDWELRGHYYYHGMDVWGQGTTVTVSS VL: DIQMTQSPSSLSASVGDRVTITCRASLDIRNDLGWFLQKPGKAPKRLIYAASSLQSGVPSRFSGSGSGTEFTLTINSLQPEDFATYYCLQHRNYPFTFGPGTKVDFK", "%", 65],
  ["9G8 (antibody, IgG4, V domains shown, Fully human; used for IgG4 rows and where no isotype is printed; also called 9G8 IgG4) VH: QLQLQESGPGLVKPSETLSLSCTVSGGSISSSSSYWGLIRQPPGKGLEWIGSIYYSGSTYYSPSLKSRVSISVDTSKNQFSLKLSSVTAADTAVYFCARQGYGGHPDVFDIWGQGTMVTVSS VL: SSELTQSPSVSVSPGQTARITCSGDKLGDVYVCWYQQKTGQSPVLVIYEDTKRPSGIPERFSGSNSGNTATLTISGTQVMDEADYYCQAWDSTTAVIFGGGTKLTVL", "%", 62],
  ["21H3 (antibody, IgG4, V domains shown, Fully human; used for IgG4 rows and where no isotype is printed; also called 21H3 IgG4) VH: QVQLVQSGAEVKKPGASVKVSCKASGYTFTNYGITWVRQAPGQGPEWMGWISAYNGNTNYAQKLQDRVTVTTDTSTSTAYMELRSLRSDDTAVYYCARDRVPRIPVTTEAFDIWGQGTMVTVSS VL: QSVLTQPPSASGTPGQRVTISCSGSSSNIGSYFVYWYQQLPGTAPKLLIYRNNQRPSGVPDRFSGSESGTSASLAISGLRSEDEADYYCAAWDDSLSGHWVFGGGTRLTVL", "%", 93],
  ["2H10 (antibody, IgG4, V domains shown, Fully human; used for IgG4 rows and where no isotype is printed; also called 2H10 IgG4) VH: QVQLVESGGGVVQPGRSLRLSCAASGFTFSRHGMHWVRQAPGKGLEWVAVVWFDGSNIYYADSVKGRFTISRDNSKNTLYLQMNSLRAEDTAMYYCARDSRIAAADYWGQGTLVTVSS VL: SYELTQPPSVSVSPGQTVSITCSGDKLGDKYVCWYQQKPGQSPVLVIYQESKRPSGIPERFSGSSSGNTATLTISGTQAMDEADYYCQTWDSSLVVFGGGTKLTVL", "%", 93],
  ["1D4 (antibody, IgG4, V domains shown, Fully human XenoMouse antibody; also used where no isotype is printed) VH: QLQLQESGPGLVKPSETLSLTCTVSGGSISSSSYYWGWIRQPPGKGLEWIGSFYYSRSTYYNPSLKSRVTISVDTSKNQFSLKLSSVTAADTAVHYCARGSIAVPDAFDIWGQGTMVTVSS VL: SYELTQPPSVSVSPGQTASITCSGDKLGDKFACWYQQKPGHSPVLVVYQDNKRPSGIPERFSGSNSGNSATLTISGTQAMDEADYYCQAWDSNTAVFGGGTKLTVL", "%", 45]
]}

All values here come from patent US20100196385A1.
